Target: CDK2/Cyclin E (Homo sapiens, UniProt P24941)
Construct: The open reading frames of CDK2 and Cyclin E were isolated by reverse transcriptase-PCR
Assay: in vitro kinase assay, Scintillation Proximity Assay (incorporation of [γ-33-P]-ATP into GST-Rb)
Settings: CDK2/Cyclin E partially-purified enzyme, GST-Rb substrate, 0.2 μM ATP, room temperature 60 minutes; read-out: CDK2 inhibitory activity IC50
recordedMetric: IC50 (nM)
Give the value in nM but do not write nM after it.

Query: Given Cc1ncc(-c2ccnc(Nc3ccc(C(=O)NCCN(C)C)c(F)c3)n2)n1C(C)C , respond with its IC50.
Response: 3

These measurements were taken from patent US20100240686A1.
